pKi: −log10 of the molar value.
Listed below are compounds with pKi for 5-hydroxytryptamine receptor 6 (Homo sapiens, UniProt P50406), each taken from published literature.
reported.property: pKi

>  <compound>
NCCNc1ccc2[nH]nc(S(=O)(=O)c3cccc4ccccc34)c2c1

>  <assay.result>
8.17

$$$$
>  <compound>
O=C1c2ccccc2S(=O)(=O)N1CCCCCCN1CCN(c2cccc3ccccc23)CC1

>  <assay.result>
6.80

$$$$
>  <compound>
COc1ccc(NC(=O)N2CCN(c3ccc(C(F)(F)F)cc3)CC2)cc1N1CCN(C)CC1

>  <assay.result>
5.54

$$$$
>  <compound>
COc1ccc(S(=O)(=O)n2c3c(c4ccccc42)CCNCC3)cc1

>  <assay.result>
7.48

$$$$
>  <compound>
CN1CCC(N(C)C(=O)C2CN(S(=O)(=O)c3cccc4ccccc34)c3ccccc32)CC1 (racemic)

>  <assay.result>
7.50

$$$$

---

Here's a roundup of Ki values tested on 5-hydroxytryptamine receptor 6 (Homo sapiens, UniProt P50406), taken from various published works.
Sequence (P50406 whole entry): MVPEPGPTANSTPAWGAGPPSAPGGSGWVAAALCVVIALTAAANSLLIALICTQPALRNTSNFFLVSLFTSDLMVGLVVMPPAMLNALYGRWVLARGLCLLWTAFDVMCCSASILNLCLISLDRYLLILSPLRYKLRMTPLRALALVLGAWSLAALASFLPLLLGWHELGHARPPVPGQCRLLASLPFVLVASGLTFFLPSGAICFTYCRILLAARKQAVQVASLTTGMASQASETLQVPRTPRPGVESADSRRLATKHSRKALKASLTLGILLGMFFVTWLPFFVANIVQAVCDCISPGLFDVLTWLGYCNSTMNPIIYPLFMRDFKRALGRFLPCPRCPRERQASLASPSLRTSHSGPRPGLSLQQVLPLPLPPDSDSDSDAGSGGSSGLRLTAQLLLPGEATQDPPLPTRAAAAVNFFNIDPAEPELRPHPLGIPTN

>  <compound>
CNCCC1=CC(CCc2ccccc2)c2ccccc21 (configuration not stated)

>  <unit.of.measure>
nM

>  <Ki>
100

$$$$
>  <compound>
CNCC1Cc2ccc3c(ccn3S(=O)(=O)c3cccc4ccccc34)c21 (configuration not stated)

>  <unit.of.measure>
nM

>  <Ki>
1

$$$$
>  <compound>
CN1CCN(c2nc(N)nc(COc3ccccc3Cl)n2)CC1

>  <unit.of.measure>
nM

>  <Ki>
129

$$$$
>  <compound>
O=S(=O)(NC1CCN(CCOc2ccccc2-c2ccccc2)C1)c1cc(F)ccc1F (configuration not stated)

>  <unit.of.measure>
nM

>  <Ki>
515

$$$$
>  <compound>
O=S(=O)(c1ccccc1F)n1cc(C2=CCCNC2)c2ccccc21

>  <unit.of.measure>
nM

>  <Ki>
9.2

$$$$
>  <compound>
O=S(=O)(c1ccc(Br)cc1)c1cn(C2CCNC2)c2ncccc12 (configuration not stated)

>  <unit.of.measure>
nM

>  <Ki>
4.3

$$$$
>  <compound>
O=S(=O)(Cl)c1c(Cl)nc2n1CCS2

>  <unit.of.measure>
nM

>  <Ki>
8.4

$$$$
>  <compound>
FC(F)(F)c1cccc(Sc2ccc3c(c2)N2CCNCC2C3)c1 (configuration not stated)

>  <unit.of.measure>
nM

>  <Ki>
300

$$$$
>  <compound>
CN(C)CCC(=O)Nc1ccc2c(S(=O)(=O)c3cccc4ccccc34)n[nH]c2c1

>  <unit.of.measure>
nM

>  <Ki>
44

$$$$
>  <compound>
CC(C)CS(=O)(=O)n1ccc2c(-c3ccc(C(F)(F)F)cc3)cc(N3CCNCC3)nc21

>  <unit.of.measure>
nM

>  <Ki>
3

$$$$
>  <compound>
C#CCNC1CCc2c(OCCCN3CCN(c4cccc5c4ccn5Cc4cccc(Cl)c4)CC3)cccc21 (configuration not stated)

>  <unit.of.measure>
nM

>  <Ki>
77

$$$$
>  <compound>
CN1CCN(c2ccc3[nH]nc(S(=O)(=O)c4ccccc4F)c3c2)CC1

>  <unit.of.measure>
nM

>  <Ki>
5.5

$$$$

---

Published Ki for 5-hydroxytryptamine receptor 6 (Homo sapiens, UniProt P50406), assembled from different documents, is shown next.

>  <compound>
O=CC1=Cc2cn(S(=O)(=O)c3cccc4ccccc34)c3cccc(c23)O1

>  <measurement.target>
5-hydroxytryptamine receptor 6 (Homo sapiens, UniProt P50406)

>  <unit.of.measure>
µM

>  <value.modifier>
=

>  <Ki>
0.266

$$$$
>  <compound>
Cc1ccc(C(C)C)c(OCc2nc(N)nc(N3CCN(C)CC3)n2)c1

>  <measurement.target>
5-hydroxytryptamine receptor 6 (Homo sapiens, UniProt P50406)

>  <unit.of.measure>
µM

>  <value.modifier>
=

>  <Ki>
0.011

$$$$
>  <compound>
CN1CCN(c2nc(N)nc(C(C)(C)Oc3ccccc3Cl)n2)CC1

>  <measurement.target>
5-hydroxytryptamine receptor 6 (Homo sapiens, UniProt P50406)

>  <unit.of.measure>
µM

>  <value.modifier>
=

>  <Ki>
0.079

$$$$
>  <compound>
O=S(=O)(c1cccc2ccccc12)c1n[nH]c2cccc(NCC3CCNCC3)c12

>  <measurement.target>
5-hydroxytryptamine receptor 6 (Homo sapiens, UniProt P50406)

>  <unit.of.measure>
µM

>  <value.modifier>
=

>  <Ki>
0.0095

$$$$
>  <compound>
O=C1c2cccc3cccc(c23)N1CCCCCCN1CCN(c2ccc(C(F)(F)F)cc2)CC1

>  <measurement.target>
5-hydroxytryptamine receptor 6 (Homo sapiens, UniProt P50406)

>  <unit.of.measure>
µM

>  <value.modifier>
=

>  <Ki>
2.04

$$$$
>  <compound>
CN1CCN(c2ccc3[nH]nc(S(=O)(=O)c4c(Cl)cccc4Cl)c3c2)CC1

>  <measurement.target>
5-hydroxytryptamine receptor 6 (Homo sapiens, UniProt P50406)

>  <unit.of.measure>
µM

>  <value.modifier>
=

>  <Ki>
0.0026

$$$$
>  <compound>
COc1ccc(S(=O)(=O)c2n[nH]c3cc(N4CCNCC4)ccc23)cc1

>  <measurement.target>
5-hydroxytryptamine receptor 6 (Homo sapiens, UniProt P50406)

>  <unit.of.measure>
µM

>  <value.modifier>
=

>  <Ki>
0.124

$$$$
>  <compound>
CN1CCCC(n2cc(S(=O)(=O)c3cccc4ccccc34)c3ccccc32)C1 (stereo unspecified)

>  <measurement.target>
5-hydroxytryptamine receptor 6 (Homo sapiens, UniProt P50406)

>  <unit.of.measure>
µM

>  <value.modifier>
=

>  <Ki>
0.0071

$$$$
>  <compound>
Cn1nc(S(=O)(=O)c2ccccc2)c2cc(N3CCNCC3)ccc21

>  <measurement.target>
5-hydroxytryptamine receptor 6 (Homo sapiens, UniProt P50406)

>  <unit.of.measure>
µM

>  <value.modifier>
=

>  <Ki>
0.0032

$$$$
>  <compound>
NCCn1cc(S(=O)(=O)c2cccc(Cl)c2)c2ncccc21

>  <measurement.target>
5-hydroxytryptamine receptor 6 (Homo sapiens, UniProt P50406)

>  <unit.of.measure>
µM

>  <value.modifier>
=

>  <Ki>
0.035

$$$$
>  <compound>
Cc1nc2c(N3CCNCC3)cccc2n1S(=O)(=O)c1ccccc1

>  <measurement.target>
5-hydroxytryptamine receptor 6 (Homo sapiens, UniProt P50406)

>  <unit.of.measure>
µM

>  <value.modifier>
=

>  <Ki>
0.0005

$$$$
>  <compound>
Cc1ccccc1Cc1nc(N)nc(N2CCN(C)CC2)n1

>  <measurement.target>
5-hydroxytryptamine receptor 6 (Homo sapiens, UniProt P50406)

>  <unit.of.measure>
µM

>  <value.modifier>
=

>  <Ki>
0.08

$$$$
>  <compound>
COc1ccc(CCN2CCC(C(=O)c3cccc(OCCF)c3OC)CC2)cc1

>  <measurement.target>
5-hydroxytryptamine receptor 6 (Homo sapiens, UniProt P50406)

>  <unit.of.measure>
µM

>  <value.modifier>
>

>  <Ki>
10

$$$$
>  <compound>
Cc1ccc2c(OCCN3CCC(Cc4cccc(N5CCCS5(=O)=O)c4)CC3)cccc2n1

>  <measurement.target>
5-hydroxytryptamine receptor 6 (Homo sapiens, UniProt P50406)

>  <unit.of.measure>
µM

>  <value.modifier>
=

>  <Ki>
1.58

$$$$
>  <compound>
CCN1CCN(c2cn(S(=O)(=O)c3ccc(F)cc3)c3ccc(Cl)cc23)CC1

>  <measurement.target>
5-hydroxytryptamine receptor 6 (Homo sapiens, UniProt P50406)

>  <unit.of.measure>
µM

>  <value.modifier>
=

>  <Ki>
0.0107

$$$$
>  <compound>
CCN(CCCN1CCN(c2ccccc2OC)CC1)S(=O)(=O)c1ccc2ncccc2c1

>  <measurement.target>
5-hydroxytryptamine receptor 6 (Homo sapiens, UniProt P50406)

>  <unit.of.measure>
µM

>  <value.modifier>
=

>  <Ki>
1.92

$$$$
>  <compound>
O=S(=O)(c1cccc2ncccc12)N1CCC[C@H]1CCN1CCC(c2noc3cc(F)ccc23)CC1

>  <measurement.target>
5-hydroxytryptamine receptor 6 (Homo sapiens, UniProt P50406)

>  <unit.of.measure>
µM

>  <value.modifier>
=

>  <Ki>
0.169

$$$$
>  <compound>
CCN/C(=N\S(=O)(=O)c1ccc(N)c(Cl)c1)N1CC(CC)C=N1 (stereo unspecified)

>  <measurement.target>
5-hydroxytryptamine receptor 6 (Homo sapiens, UniProt P50406)

>  <unit.of.measure>
µM

>  <value.modifier>
=

>  <Ki>
0.0015

$$$$
>  <compound>
CN1CCN(c2nc(N)nc(C(C)(C)Sc3ccccc3Cl)n2)CC1

>  <measurement.target>
5-hydroxytryptamine receptor 6 (Homo sapiens, UniProt P50406)

>  <unit.of.measure>
µM

>  <value.modifier>
=

>  <Ki>
0.476

$$$$
>  <compound>
COc1ccc2c(=O)c3cc(CN4CCN(c5ccccc5OC)CC4)ccc3oc2c1.Cl

>  <measurement.target>
5-hydroxytryptamine receptor 6 (Homo sapiens, UniProt P50406)

>  <unit.of.measure>
µM

>  <value.modifier>
=

>  <Ki>
13.6

$$$$
>  <compound>
COc1ccc(NS(=O)(=O)c2cccc3c(N(C)C)cccc23)cc1N1CCNCC1

>  <measurement.target>
5-hydroxytryptamine receptor 6 (Homo sapiens, UniProt P50406)

>  <unit.of.measure>
µM

>  <value.modifier>
=

>  <Ki>
0.008

$$$$
